# SYSTEM UNDER TEST: T1, human neuropeptide Y2 (NPY2) receptor (human, UniProt P49146 1-381)
# T1 sequence (looked up): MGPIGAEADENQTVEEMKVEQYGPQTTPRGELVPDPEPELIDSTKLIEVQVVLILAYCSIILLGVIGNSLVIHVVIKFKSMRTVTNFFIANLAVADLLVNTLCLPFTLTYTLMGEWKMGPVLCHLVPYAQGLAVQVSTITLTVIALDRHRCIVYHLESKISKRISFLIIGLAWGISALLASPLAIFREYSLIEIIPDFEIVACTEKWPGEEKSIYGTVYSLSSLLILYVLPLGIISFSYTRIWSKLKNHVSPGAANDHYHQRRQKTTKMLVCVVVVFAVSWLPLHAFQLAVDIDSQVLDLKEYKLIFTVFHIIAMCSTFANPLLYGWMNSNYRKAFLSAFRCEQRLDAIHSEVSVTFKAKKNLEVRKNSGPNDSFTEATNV
# TEST DETAILS: cell-based or functional assay
Field: EC50, CreLuc assay, 100% hP. Provide a value for each of the binders that follow.
Note: a bare number is incomplete; add the unit.

GET /value?item= YXEGTFTSDYSIXLEKQAQXAFVEWLIKGGPSSPESXRHYYNWLTRQRY (Aib at 2, 13, 20, 37; K28 side chain: C20DA-gGlu-gGlu-gGlu-gGlu-gGlu-gGlu-eK; C-terminal NH2) [Compound 10] &field=EC50, CreLuc assay, 100% hP returns 42.2 nM

GET /value?item= YXEGTFTSDYSIXLEKQAQXAFVQWLIKGGPSSGESLRHYYNWLTRQRY (Aib at 2, 13, 20; K28 side chain: C20DA-gGlu-gGlu-gGlu-gGlu-gGlu-gGlu-eK; C-terminal NH2) [Compound 35] &field=EC50, CreLuc assay, 100% hP returns 29.3 nM

GET /value?item= YXEGTFTSDYSIXLEKQAQXAFVEWLIKGGPSSGASLRHYYNLXTRQRY (Aib at 2, 13, 20, 44; K28 side chain: C20DA-gGlu-gGlu-gGlu-gGlu-gGlu-gGlu-eLys; C-terminal NH2) [Compound 79] &field=EC50, CreLuc assay, 100% hP returns 265 nM

GET /value?item= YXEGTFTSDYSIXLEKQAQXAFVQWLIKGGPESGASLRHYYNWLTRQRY (Aib at 2, 13, 20; K28 side chain: C20DA-gGlu-gGlu-gGlu-gGlu-gGlu-OEG-OEG; C-terminal NH2) [Compound 32] &field=EC50, CreLuc assay, 100% hP returns 49.3 nM

GET /value?item= YXEGTFTSDYSIXLEKQAQXAFVEWLIKGGPSSGASXRHYYNWLTXQRY (Aib at 2, 13, 20, 37; hArg 46; DTyr 49; K28 side chain: C20DA-gGlu-gGlu-gGlu-gGlu-gGlu-gGlu-eLys; C-terminal NH2) [Compound 26] &field=EC50, CreLuc assay, 100% hP returns 670 nM

GET /value?item= YXEGTFTSDYSIXLEKQAQXAFVQWLIKGGQSSYASLRHYYNWLTRQRY (Aib at 2, 13, 20; K28 side chain: C20DA-gGlu-gGlu-gGlu-gGlu-gGlu-Glu-eLys; C-terminal NH2) [Compound 22] &field=EC50, CreLuc assay, 100% hP returns 21.3 nM
